Reported IC50 values for a set of molecules
Biological target: Muscarinic acetylcholine receptor M5 (Homo sapiens, UniProt P08912)
Sequence (P08912 whole entry): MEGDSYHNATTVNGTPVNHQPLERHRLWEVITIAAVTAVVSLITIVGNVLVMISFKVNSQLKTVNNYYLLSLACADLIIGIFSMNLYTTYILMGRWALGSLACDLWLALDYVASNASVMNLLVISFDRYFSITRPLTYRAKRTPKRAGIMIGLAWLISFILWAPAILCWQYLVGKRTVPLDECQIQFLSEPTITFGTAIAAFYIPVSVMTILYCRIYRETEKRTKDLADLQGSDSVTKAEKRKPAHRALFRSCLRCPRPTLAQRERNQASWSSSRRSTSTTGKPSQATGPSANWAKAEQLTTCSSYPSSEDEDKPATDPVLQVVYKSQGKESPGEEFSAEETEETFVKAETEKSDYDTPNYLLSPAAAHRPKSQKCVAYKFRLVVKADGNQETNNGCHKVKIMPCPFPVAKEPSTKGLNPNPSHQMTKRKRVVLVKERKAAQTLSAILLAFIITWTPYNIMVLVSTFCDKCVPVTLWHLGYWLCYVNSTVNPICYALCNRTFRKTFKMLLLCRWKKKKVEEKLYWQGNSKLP
Assay: Negative allosteric modulation of human muscarinic acetylcholine receptor M5 expressed in CHO cells assessed as inhibition of acetylcholine-induced calcium mobilization incubated for 150 secs prior to acetylcholine induction by Fluo4AM staining-based fluorescence assay
experimental-readout: IC50 (µM)

1) COc1cccc(C(=O)N2CCN3C(=O)c4ccccc4C23c2ccc(Cl)cc2)c1 (racemic) = 6.6
2) CC(C)Oc1ccc(C(=O)N2CCN3C(=O)c4ccccc4C23c2ccc(OC(C)C)cc2)cc1 (racemic) = 1.9
3) O=C(c1cc(F)c(F)c(F)c1)N1CCN2C(=O)c3ccccc3C12c1ccc(Cl)cc1 (racemic) = 0.61
4) O=C(c1ccc(F)c(F)c1)N1CCN2C(=O)c3ccccc3C12C1CCCC1 (racemic) = 2.4
5) COc1ccc(C23c4ccccc4C(=O)N2CCN3C(=O)c2ccc(F)c(F)c2)cc1F (racemic) = 3.3
6) CC(C)Oc1ccc(C23c4ccccc4C(=O)N2CCN3C(=O)c2cc(F)c(F)c(F)c2)cc1 (racemic) = 2.4
7) COc1cc(C23c4ccccc4C(=O)N2CCN3C(=O)c2ccc(OC(C)C)cc2)ccc1F (racemic) = 1.3
8) COc1cc(C23c4ccccc4C(=O)N2CCN3C(=O)c2ccc(F)c(F)c2)ccc1C (racemic) = 1.3
9) CC(C)Oc1ccc(C(=O)N2CCN3C(=O)c4ccccc4C23c2ccc(Cl)cc2)cc1 (racemic) = 0.79

---

Reported pIC50 values for a set of compounds
target: Muscarinic acetylcholine receptor M5 (Homo sapiens); test: Negative allosteric modulation of human muscarinic acetylcholine receptor M5 expressed in CHO cells assessed as inhibition of acetylcholine-induced calcium mobilization incubated for 150 secs prior to acetylcholine induction by Fluo4AM staining-based fluorescence assay
pIC50: −log10 of the molar value.
experimental-readout: pIC50

1. COc1ccc(C23c4ccccc4C(=O)N2CCN3C(=O)c2cc(F)c(F)c(F)c2)cc1F (racemic) = < 4.52
2. O=C(c1ccc(F)c(F)c1)N1CCN2C(=O)c3ccccc3C12c1cccnc1 (racemic) = < 5.00
3. O=C(c1ccc(F)c(F)c1)N1CCN2C(=O)c3ccccc3C12c1ccncc1 (racemic) = < 5.00
4. O=C(c1ccc(F)c(F)c1)N1CCN2C(=O)c3ccccc3C12C1CCC1 (racemic) = < 5.00
5. O=C(c1ccc(F)c(F)c1)N1CCN2C(=O)c3ccccc3C12C1CC1 (racemic) = < 5.00
6. CCOc1ccc(C23c4ccccc4C(=O)N2CCN3C(=O)c2cc(F)c(F)c(F)c2)cc1 (racemic) = < 4.52
7. O=C(c1ccc(F)c(F)c1)N1CCN2C(=O)c3ccccc3C12c1ccccn1 (racemic) = < 5.00
8. O=C(c1ccc(F)c(F)c1)N1CCN2C(=O)c3ccccc3C12C1CCOCC1 (racemic) = < 5.00
9. O=C(c1ccc(F)nc1)N1CCN2C(=O)c3ccccc3C12c1ccc(Cl)cc1 (racemic) = < 5.00
10. O=C(c1ccnnc1)N1CCN2C(=O)c3ccccc3C12c1ccc(Cl)cc1 (racemic) = < 5.00
11. O=C(c1ccc(F)c(F)c1)N1CCN2C(=O)c3ccccc3C12c1ccc(Oc2ccccc2)cc1 (racemic) = < 5.00
12. CN(C)c1ccc(C(=O)N2CCN3C(=O)c4ccccc4C23c2ccc(Cl)cc2)cc1 (racemic) = < 5.00
